test system: Antibody 7 (clone XM210 from Abcam); assay: Cross reactivity on anti-cortisol antibody microarray, antibody 7; assay type: binding; settings: determined by 2000 ng/mL sample

{"compound": "CC(=O)[C@@]1(O)CC[C@H]2[C@@H]3C[C@H](C)C4=CC(=O)C=C[C@]4(C)[C@@]3(F)[C@@H](O)C[C@@]21C [SYN-8, Fluorometholone]", "Percent cross reactivity, antibody 7, %": 0}
{"compound": "C[C@]12CCC(=O)C=C1CC[C@@H]1[C@@H]2C(=O)C[C@@]2(C)[C@H]1CC[C@]2(O)C(=O)CO [SYN-6, Cortisone]", "Percent cross reactivity, antibody 7, %": 1}
{"compound": "C[C@]12C=CC(=O)C=C1CC[C@H]1[C@@H]3C[C@@H](O)[C@](O)(C(=O)CO)[C@@]3(C)C[C@H](O)[C@@]12F [SYN-4, Triamcinolone]", "Percent cross reactivity, antibody 7, %": 0}
{"compound": "C[C@]12C=CC(=O)C=C1CC[C@@H]1[C@@H]2[C@@H](O)C[C@@]2(C)[C@H]1CC[C@]2(O)C(=O)CO [SYN-7, Prednisolone]", "Percent cross reactivity, antibody 7, %": 5}
{"compound": "C[C@]12C=CC(=O)C=C1CC[C@@H]1[C@@H]2C(=O)C[C@@]2(C)[C@H]1CC[C@]2(O)C(=O)CO [SYN-2, Prednisone]", "Percent cross reactivity, antibody 7, %": 1}
{"compound": "C[C@H]1C[C@@H]2[C@H]([C@@H](O)C[C@@]3(C)[C@H]2CC[C@]3(O)C(=O)CO)[C@@]2(C)C=CC(=O)C=C12 [SYN-1, 6-a-methyl prednisolone]", "Percent cross reactivity, antibody 7, %": 9}
